- Test system: MRSA
- test_protocol: Potentiating effect of galloyl quinic acid derivatives for the antibacterial activity of oxacillin (agar plate dilution method, MIC)
- Type: cell-based, Staphylococcus aureus
- experimental_context: MRSA 7; with 12.5 μg/ml of compound
Provide the reported Oxacillin MIC of each item.
Supply the numeric figure in µg/mL, leaving out any unit text.

Lab request: please report Oxacillin MIC under test system MRSA for COC(=O)C1(O)CC(O)C(OC(=O)c2cc(O)c(O)c(O)c2)C(OC(=O)c2cc(O)c(O)c(O)c2)C1 (stereo not shown) 32

Please give the result for COC(=O)C1(O)CC(OC(=O)c2cc(O)c(O)c(O)c2)C(OC(=O)c2cc(O)c(O)c(O)c2)C(OC(=O)c2cc(O)c(O)c(O)c2)C1 (stereo not shown) too. 256

Again, but for O=C(OC1CC(O)(C(=O)O)CC(OC(=O)c2cc(O)c(O)c(O)c2)C1OC(=O)c1cc(O)c(O)c(O)c1)c1cc(O)c(O)c(O)c1 (stereo not shown) 16

----------
- Test system: MRSA
- test_protocol: Potentiating effect of galloyl quinic acid derivatives for the antibacterial activity of oxacillin (agar plate dilution method, MIC)
- Type: cell-based, Staphylococcus aureus
- experimental_context: MRSA 10; with 50 μg/ml of compound
- Experimental: According to the agar plate dilution method defined by Japan Society of Chemotherapy, MIC (Minimum inhibitory concentration) was determined. […] It was confirmed that the known substances shown below were contained in “Tara” and their MICs were determined as described in example 2 with respect to the effects of the combination use with oxacillin
endpoint_label: Oxacillin MIC (µg/mL)
Numeric answer only, unit µg/mL assumed.

Param item = O=C(OC1CC(O)(C(=O)O)CC(O)C1OC(=O)c1cc(O)c(O)c(O)c1)c1cc(O)c(O)c(O)c1 (stereo not shown) ; retrieve measured Oxacillin MIC. 128

Quick one: COC(=O)C1(O)CC(OC(=O)c2cc(O)c(O)c(O)c2)C(OC(=O)c2cc(O)c(O)c(O)c2)C(OC(=O)c2cc(O)c(O)c(O)c2)C1 (stereo not shown) 64

Ok, now COC(=O)C1(O)CC(O)C(OC(=O)c2cc(O)c(O)c(O)c2)C(OC(=O)c2cc(O)c(O)c(O)c2)C1 (stereo not shown) 8

Entry to check: O=C(OC1CC(O)(C(=O)O)CC(OC(=O)c2cc(O)c(O)c(O)c2)C1OC(=O)c1cc(O)c(O)c(O)c1)c1cc(O)c(O)c(O)c1 (stereo not shown) 4

----------
- Test system: MRSA and MSSA
- test_protocol: Antibacterial activity of gallic acid, various gallates and multivalent phenol derivatives alone (agar plate dilution method, MIC)
- Format: cell-based, Staphylococcus aureus
- experimental_context: Staphylococcus aureus, MRSA #8; compound alone; read-out: MIC
Would you kindly list MIC for each of these compounds?
Give the quantity in µg/mL, number only.

State the recorded MIC for this entry: CC(=O)c1ccc(O)c(O)c1O [2′,3′,4′-trihydroxyacetophenone] 62.5

Can you handle CC(C)CCOC(=O)c1ccc(O)cc1 [Isoamyl 4-hydroxybenzoate] next? 62.5

Subsequent entry: CCCCCOC(=O)c1ccc(O)cc1 [n-Amyl 4-hydroxybenzoate] 31.3

Cool, now CCCC(=O)c1cc(O)c(O)cc1O [2′,4′,5′-trihydroxybutyrophenone] 125

Cool, now CC(C)CCOC(=O)c1cc(O)c(O)c(O)c1 [isoAmyl gallate, Isoamyl gallate] 62.5

Then this compound: CC(C)COC(=O)c1cc(O)c(O)c(O)c1 [isoButyl gallate, isobutyl gallate] 125

Would you mind doing CCCCCCCCCCCCOC(=O)c1cc(O)c(O)c(O)c1 [Lauryl gallate, n-lauryl gallate] as well? 31.3

Now consider CCCCCCCCCCCOC(=O)c1cc(O)c(O)c(O)c1 [Undecyl gallate, n-undecyl gallate] and answer again. 31.3
